# Test system: bed bug antennae
# assay-protocol: Coupled gas chromatography-electroantennography (GC-EAG) of volatile extract from bed bug-exposed paper
# Parameters: species or system Cimex lectularius
# assay-setup: total EAG responses, Table 8
assay-metric: Visual inspection (no of responses) Response

{"columns": ["compound", "observed-result"],
 "data": [
  ["C=C1C=CC(C(C)C)CC1 (single isomer, unassigned)", 11],
  ["CCCCCCCCC(=O)O", 12],
  ["CCCCCCCC=O (single isomer, unassigned)", 19],
  ["CCCCC/C=C/C=O (single isomer, unassigned) [(E)-2-octenal]", 16]
]}

* * *

# System: bed bug antennae
# assay-protocol: Coupled gas chromatography-electroantennography (GC-EAG) of volatile extract from bed bug-exposed paper
# Set-up: species or system Cimex lectularius
# assay-setup: males plus females, 20 insects tested
# Procedure: Experimental insects, unless otherwise stated, were mated males and females of C. lectularius that had been fed 7 to 14 days previously on heparinised sheep blood. […] The GC used was a HP-680N, containing a HP-1 column (30 m×0.32 mm; film thickness, 0.52 μm) with a COC injector, hydrogen carrier gas and a FID. […] Signals were analysed using the computer-based software package, EAD 2000 (Syntech®, The Netherlands). […]
Quick reference: Responses Total of the listed items.
assay-metric: Responses Total

{"columns": ["molecule", "observed-result"],
 "data": [
  ["CCCCCCCCCCCC", 16],
  ["C=C1C=CC(C(C)C)CC1 (single isomer, unassigned)", 11],
  ["CCCCCCCC/C=C/C=O [(E)-2-Undecenal, (E)-2-undecenal]", 9],
  ["C=CC(O)CCCCC (racemic) [(RS)-1-Octen-3-ol, (RS)-1-octen-3-ol]", 11]
]}
